The measurements presented in this section are drawn from paper PMC6348443.

biological target: DOR (Homo sapiens); assay: [35S]GTPγS binding assay, CHO-hDOR membranes; settings: [35S]GTPγS, CHO human DOR membranes
Sequence (P41143 whole entry): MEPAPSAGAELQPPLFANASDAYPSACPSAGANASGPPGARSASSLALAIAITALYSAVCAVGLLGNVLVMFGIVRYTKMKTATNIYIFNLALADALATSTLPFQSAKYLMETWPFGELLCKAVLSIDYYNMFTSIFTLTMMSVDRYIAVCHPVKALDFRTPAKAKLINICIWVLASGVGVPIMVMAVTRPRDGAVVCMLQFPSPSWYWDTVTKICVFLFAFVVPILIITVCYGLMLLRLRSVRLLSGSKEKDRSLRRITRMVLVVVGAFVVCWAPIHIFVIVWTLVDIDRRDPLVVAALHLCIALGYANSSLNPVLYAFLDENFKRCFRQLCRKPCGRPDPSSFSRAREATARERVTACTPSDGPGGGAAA

- COMPOUND: "CO[C@@]12CC[C@H](N[C@@H](C(=O)O)C(C)C)[C@@H]3Oc4c(O)ccc5c4[C@@]31CCN(C)[C@@H]2C5 [Compound 16a]"
  EC50: "1.12 nM"
- COMPOUND: "CO[C@@]12CCC(=O)[C@@H]3Oc4c(O)ccc5c4[C@@]31CCN(C)[C@@H]2C5 [Compound 1, 14-O-methyloxymorphone, reference compound]"
  EC50: "37.3 nM"
- COMPOUND: "CO[C@@]12CC[C@H](N[C@H](Cc3ccccc3)C(=O)O)[C@@H]3Oc4c(O)ccc5c4[C@@]31CCN(C)[C@@H]2C5 [Compound 17a]"
  EC50: "8.36 nM"

----------
Target: KOR (Homo sapiens)
Construct: host or cells: CHO (CHO-hKOR)
Sequence (P41145 whole entry): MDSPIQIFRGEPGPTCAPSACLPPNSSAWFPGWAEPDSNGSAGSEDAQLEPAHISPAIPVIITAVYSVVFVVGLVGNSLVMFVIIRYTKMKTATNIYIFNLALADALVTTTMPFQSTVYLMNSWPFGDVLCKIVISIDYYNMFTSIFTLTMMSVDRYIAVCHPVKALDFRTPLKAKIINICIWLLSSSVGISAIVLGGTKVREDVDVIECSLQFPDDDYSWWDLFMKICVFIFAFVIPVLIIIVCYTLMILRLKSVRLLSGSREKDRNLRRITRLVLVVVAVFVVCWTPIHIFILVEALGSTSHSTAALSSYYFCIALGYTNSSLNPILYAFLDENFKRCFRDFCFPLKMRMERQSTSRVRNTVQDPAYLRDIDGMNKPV
Experiment: [35S]GTPγS binding assay, CHO-hKOR membranes
Format: biochemical
Conditions: [35S]GTPγS, CHO human KOR membranes; read-out: KOR EC50
Procedure: Efficacies are presented as percentage stimulation relative to the standard full agonists, [D-Ala^2,N-Me-Phe4,Gly-ol^5]enkephalin (DAMGO for MOR),[53] […] Membranes from CHO cells expressing human opioid receptors were prepared in 50 mM Tris-HCl buffer (pH 7.7) according to a previously described procedure.[64] […] Protein content of brain and cell membrane preparation homogenates was determined by the method of Bradford using bovine serum albumin as the standard.[65] […]
pEC50: −log10 of the molar value.

- COMPOUND: "CO[C@@]12CC[C@H](N[C@@H](CCC(N)=O)C(=O)O)[C@@H]3Oc4c(O)ccc5c4[C@@]31CCN(C)[C@@H]2C5 [Compound 12a]"
  pEC50: 6.73
- COMPOUND: "CO[C@@]12CC[C@@H](N[C@@H](CO)C(=O)O)[C@@H]3Oc4c(O)ccc5c4[C@@]31CCN(C)[C@@H]2C5"
  pEC50: 6.70
- COMPOUND: "CO[C@@]12CC[C@H](N[C@@H](Cc3c[nH]c4ccccc34)C(=O)O)[C@@H]3Oc4c(O)ccc5c4[C@@]31CCN(C)[C@@H]2C5 [Compound 10a]"
  pEC50: 7.15
- COMPOUND: "CO[C@@]12CC[C@H](N[C@@H](CC(=O)O)C(=O)O)[C@@H]3Oc4c(O)ccc5c4[C@@]31CCN(C)[C@@H]2C5 [Compound 13a]"
  pEC50: 5.52
- COMPOUND: "CO[C@@]12CC[C@H](N[C@@H](CCCCN)C(=O)O)[C@@H]3Oc4c(O)ccc5c4[C@@]31CCN(C)[C@@H]2C5"
  pEC50: 6.93
- COMPOUND: "CO[C@@]12CC[C@H](NCCCC(=O)O)[C@@H]3Oc4c(O)ccc5c4[C@@]31CCN(C)[C@@H]2C5 [Compound 21a]"
  pEC50: 5.69
- COMPOUND: "CO[C@@]12CC[C@H](N[C@H](C(=O)N[C@@H](Cc3ccc(O)cc3)C(=O)O)C(C)C)[C@@H]3Oc4c(O)ccc5c4[C@@]31CCN(C)[C@@H]2C5 [Compound 22a]"
  pEC50: 6.48
- COMPOUND: "CO[C@@]12CC[C@@H](N[C@@H](Cc3ccccc3)C(=O)O)[C@@H]3Oc4c(O)ccc5c4[C@@]31CCN(C)[C@@H]2C5"
  pEC50: 5.93
- COMPOUND: "CO[C@@]12CC[C@@H](N[C@@H](Cc3ccc(O)cc3)C(=O)O)[C@@H]3Oc4c(O)ccc5c4[C@@]31CCN(C)[C@@H]2C5.Cl.Cl"
  pEC50: 6.11
- COMPOUND: "CO[C@@]12CC[C@H](NC(C)C(=O)O)[C@@H]3Oc4c(O)ccc5c4[C@@]31CCN(C)[C@@H]2C5 (stereo in doubt) [Compound 15a]"
  pEC50: 6.60
- COMPOUND: "CO[C@@]12CC[C@@H](N[C@@H](C(=O)O)C(C)C)[C@@H]3Oc4c(O)ccc5c4[C@@]31CCN(C)[C@@H]2C5 [Compound 16b]"
  pEC50: 5.89
- COMPOUND: "CO[C@@]12CC[C@@H](N[C@H](C(=O)O)C(C)C)[C@@H]3Oc4c(O)ccc5c4[C@@]31CCN(C)[C@@H]2C5"
  pEC50: 5.95
- COMPOUND: "CO[C@@]12CC[C@H](NCC(=O)O)[C@@H]3Oc4c(O)ccc5c4[C@@]31CCN(C)[C@@H]2C5"
  pEC50: 6.40
